- Tgt: T1, human BLyS (full length, arginine to histidine at position 132) on CHO-K1 cells (human, UniProt Q9Y275 1-285)
- T1 construct: also called hBLyS; CHO-K1 hBLyS
- Assay Explanation: flow cytometry, CHO-K1 hBLyS cells, antibody 0.00427 nM
Measure: MFI (MFI)

[
  {
    "Binder": "97A3C2H4 (antibody, V domains shown, Mouse hybridoma monoclonal antibody purified on Protein G) VH: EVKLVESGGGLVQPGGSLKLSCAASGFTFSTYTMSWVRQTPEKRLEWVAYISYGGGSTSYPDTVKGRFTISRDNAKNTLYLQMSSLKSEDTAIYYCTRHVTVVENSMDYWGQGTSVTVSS VL: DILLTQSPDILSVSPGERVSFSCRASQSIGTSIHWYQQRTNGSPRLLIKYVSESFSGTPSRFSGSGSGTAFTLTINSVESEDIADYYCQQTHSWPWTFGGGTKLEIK",
    "Quantity Unit": "MFI",
    "Recorded Result": 44
  },
  {
    "Binder": "8E7D9C7F5 (antibody, V domains shown, Mouse hybridoma monoclonal antibody purified on Protein G) VH: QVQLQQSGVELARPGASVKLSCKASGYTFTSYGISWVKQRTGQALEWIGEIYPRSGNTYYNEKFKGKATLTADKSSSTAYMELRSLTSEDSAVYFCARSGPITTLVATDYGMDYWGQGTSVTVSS VL: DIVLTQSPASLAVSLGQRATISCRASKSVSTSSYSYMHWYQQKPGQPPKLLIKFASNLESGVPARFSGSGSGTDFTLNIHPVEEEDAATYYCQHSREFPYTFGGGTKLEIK",
    "Quantity Unit": "MFI",
    "Recorded Result": 67.4
  },
  {
    "Binder": "67A2E1D10 (antibody, V domains shown, Mouse hybridoma monoclonal antibody purified on Protein G) VH: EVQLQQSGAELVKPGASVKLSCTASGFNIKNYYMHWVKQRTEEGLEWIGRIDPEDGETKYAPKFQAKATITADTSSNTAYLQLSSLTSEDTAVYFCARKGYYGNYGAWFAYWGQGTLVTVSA VL: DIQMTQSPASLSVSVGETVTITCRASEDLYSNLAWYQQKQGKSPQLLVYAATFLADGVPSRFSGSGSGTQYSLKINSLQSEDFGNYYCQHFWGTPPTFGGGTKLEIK",
    "Quantity Unit": "MFI",
    "Recorded Result": 33.2
  },
  {
    "Binder": "20D1B6E9E5 (antibody, V domains shown, Mouse hybridoma monoclonal antibody purified on Protein G) VH: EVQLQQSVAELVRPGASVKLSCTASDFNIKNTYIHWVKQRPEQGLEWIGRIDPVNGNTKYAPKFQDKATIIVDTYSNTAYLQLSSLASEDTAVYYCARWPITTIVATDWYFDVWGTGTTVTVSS VL: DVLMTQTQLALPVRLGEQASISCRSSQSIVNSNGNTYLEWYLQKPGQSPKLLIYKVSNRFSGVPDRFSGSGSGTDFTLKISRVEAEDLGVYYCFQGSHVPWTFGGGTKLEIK",
    "Quantity Unit": "MFI",
    "Recorded Result": 46.8
  },
  {
    "Binder": "97E7B3F2 (antibody, V domains shown, Mouse hybridoma monoclonal antibody purified on Protein G) VH: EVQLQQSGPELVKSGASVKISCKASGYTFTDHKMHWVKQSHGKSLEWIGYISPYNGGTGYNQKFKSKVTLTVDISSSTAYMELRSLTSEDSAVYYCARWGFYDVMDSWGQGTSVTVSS VL: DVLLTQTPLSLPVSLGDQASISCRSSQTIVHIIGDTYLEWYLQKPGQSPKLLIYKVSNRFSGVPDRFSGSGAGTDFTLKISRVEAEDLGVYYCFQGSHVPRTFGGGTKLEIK",
    "Quantity Unit": "MFI",
    "Recorded Result": 48.2
  }
]

Hey, just so you know, these numbers are from patent US20210347873A1.
